Target: NS3h 1b[con1]
Experiment: NS3h unwinding inhibitors, genotype 1b and 2a – biochemical, real-time fluorescence, strains con1 and JFH1, set 3, selectivity assay for HCV NS3 helicase inhibitor project, late-stage follow-up (AID 602275)
Conditions: Recombinant NS3h
pIC50: −log10 of the molar value.
PARAMETER: pIC50

Under NS3h 1b[con1]: report pIC50 of Cc1ccc2nc(-c3ccc4nc(-c5ccc(NC(=O)c6cccc(C(F)(F)F)c6)cc5)sc4c3)sc2c1S(=O)(=O)O .
4.71

Under NS3h 1b[con1]: report pIC50 of Cc1ccc2nc(-c3ccc4nc(-c5ccc(NC(=O)c6ccccc6C(F)(F)F)cc5)sc4c3)sc2c1S(=O)(=O)O .
4.85

Under NS3h 1b[con1]: report pIC50 of Cc1ccc2nc(-c3ccc4nc(-c5ccc(NC(=O)c6ccc(Cl)c(Cl)c6)cc5)sc4c3)sc2c1S(=O)(=O)O .
5.43

Under NS3h 1b[con1]: report pIC50 of Cc1ccc2nc(-c3ccc4nc(-c5ccc(NC(=O)c6c(F)cccc6C(F)(F)F)cc5)sc4c3)sc2c1S(=O)(=O)O .
4.77

Under NS3h 1b[con1]: report pIC50 of COc1ccc(C(=O)Nc2ccc(-c3nc4ccc(-c5nc6ccc(C)c(S(=O)(=O)O)c6s5)cc4s3)cc2)cc1 .
5.00

[1] Cc1ccc2nc(-c3ccc4nc(-c5ccc6nc(-c7ccc(N)cc7)sc6c5)sc4c3)sc2c1S(=O)(=O)O (tested in a mixture with another compound)
[2] COc1ccc(NC(=O)Nc2ccc(-c3nc4ccc(-c5nc6ccc(C)c(S(=O)(=O)O)c6s5)cc4s3)cc2)cc1
Which record would sort first by descending pIC50, 1 or 2 ? Reply briefly: the label of your chosen item.
2
(2: 5.32, 1: 4.89)

====

Biological target: NS3h 1b[con1]
Experiment: NS3h unwinding inhibitors, genotype 1b and 2a – biochemical, real-time fluorescence, strains con1 and JFH1, set 3, selectivity assay for HCV NS3 helicase inhibitor project, late-stage follow-up (AID 602275)
Details: Recombinant NS3h
Activity calls are given as the source filed them. How the calls were made is not given here.
Entry note: the call must match one of active, inactive

As a guide, the following entries are already answered.
What outcome does the record of this test show for Cc1ccc2nc(-c3ccc4nc(-c5ccc(NC(=O)c6ccc(F)cc6)cc5)sc4c3)sc2c1S(=O)(=O)O ?
active

What outcome does the record of this test show for Cc1ccc2nc(-c3ccc4nc(-c5ccc(NC(=O)c6ccc(CNC(=O)OCC7c8ccccc8-c8ccccc87)cc6)cc5)sc4c3)sc2c1S(=O)(=O)O ?
active

What outcome does the record of this test show for CN1CCN(Cc2cc(CN3CCN(C)CC3)c(O)c(=O)c(CN3CCN(C)CC3)c2)CC1 ?
active

What outcome does the record of this test show for Cc1ccc2nc(-c3ccc4nc(-c5ccc(N(C)C(=O)c6ccc7ccccc7c6)cc5)sc4c3)sc2c1S(=O)(=O)O ?
active

What outcome does the record of this test show for Cc1ccc2nc(-c3ccc(NC(=O)c4ccc(NC(=O)OCC5c6ccccc6-c6ccccc65)cc4)cc3)sc2c1S(=O)(=O)O ?
active

Further cases:
What outcome does the record of this test show for Cc1ccc2nc(-c3ccc4nc(-c5ccc(NC(=O)Nc6ccc(C(F)(F)F)cc6)cc5)sc4c3)sc2c1S(=O)(=O)O ?
active

What outcome does the record of this test show for Cc1ccc2nc(-c3ccc4nc(NC(=O)c5ccc6ncoc6c5)sc4c3)sc2c1 ?
inactive

What outcome does the record of this test show for Cc1ccc2nc(-c3ccc4nc(-c5ccc(NC(=O)Nc6ccccc6)cc5)sc4c3)sc2c1S(=O)(=O)O ?
active

What outcome does the record of this test show for Cc1ccc2nc(-c3ccc4nc(-c5ccc(NC(=O)c6ccc(NC(=O)OCC7c8ccccc8-c8ccccc87)cc6)cc5)sc4c3)sc2c1S(=O)(=O)O ?
active

What outcome does the record of this test show for Cc1ccc2nc(-c3ccc(NC(=O)c4ccc(N)cc4)cc3)sc2c1S(=O)(=O)O ?
inactive

What outcome does the record of this test show for Cc1ccc2nc(-c3ccc4nc(-c5ccc6nc(-c7ccc(N)cc7)sc6c5)sc4c3)sc2c1S(=O)(=O)O ?
active
